Value source: patent US20240132484A1

System: cells (nuclei count)
Details: 10 μM; toxicity data; 100=DMSO control
Assignment: determine reported Relative cell count to DMSO controls, Average 10 μM for the given molecules.

For cells (nuclei count), provide Relative cell count to DMSO controls, Average 10 μM of CCOc1cccc(CNCCc2ccccc2F)c1OCC(O)CN1CCN(C)CC1 (stereo not drawn) [SILCS3] please.
124.47

And COc1ccc(-c2[nH]ncc2C(=O)NCC2CCCCC2)cc1OC [SILCS52] ?
97.92

And COc1ccc(-c2[nH]ncc2C(=O)NC2CCCCCC2)cc1OC [SILCS60] ?
109.31

And COc1ccc(CNCCc2ccccc2F)c(OCC(O)CN2CCN(C)CC2)c1 (racemic) [UMB18G] ?
139.68

And COc1ccc(CNCCc2ccccc2F)c(OCC(O)CN2CCN(C)CC2)c1 (stereo not drawn) [SILCS45] ?
131.34

And COc1ccc(C2NC(=O)NC(C)=C2C(=O)NCC2CCCCC2)cc1OC (stereo not drawn) [SILCS63] ?
101.91

And CCN(CC)CCN(Cc1ccccn1)Cc1ccc(C)o1 [SILCS36] ?
88.15

And Cc1ccc(CN(CCN(C)C)Cc2ccc(CO)o2)s1 [SILCS13] ?
105.25

And CCN(CC)CCN(Cc1cc(C)c(Br)s1)Cc1cc(C)c(Br)s1 [SILCS39] ?
149.83

And CN(C)CCN(Cc1ccsc1)Cc1ccc(CO)o1 [SILCS9] ?
111.19

And Cc1cc(CN(CCN(C)C)Cc2ccsc2)oc1C [SILCS27] ?
120.18

And COc1ccc(CNCCc2ccccc2F)c(OCC(O)CN2CCOCC2)c1 (stereo not drawn) [SILCS49] ?
120.89

And COCC1=C(C(=O)NCC2CCC2)C(c2cccs2)NC(=O)N1 (stereo not drawn) [SILCS56] ?
119.65

And COc1ccc(CNCCc2ccccc2F)c(OCC(O)CN2CCN(C)CC2)c1 (racemic) [SILCS41] ?
124.03

And CCN(CC)CCN(Cc1ccccn1)C(=O)c1cccs1 [SILCS37] ?
116.31
